- Test system: CCRIS mutagenicity, Ames/micronucleus/aberration tests
- assayProtocol: CCRIS mutagenicity studies
- runConditions: Test System: AMES SALMONELLA TYPHIMURIUM; Strain/Indicator: TA1537; Metabolic Activation: NONE; Method: STANDARD PLATE
Active and inactive are the calls of the source. The rule behind the calls is not given here.
Returns: one label drawn from active, inactive

Request: Look up the recorded call for "C=CC(=O)OCC(C)(C)COC(=O)C=C" in this test.
Result: inactive

Request: Look up the recorded call for "Cc1cn2c(N=O)c(-c3ccc([N+](=O)[O-])cc3)nc2s1" in this test.
Result: inactive

Request: Look up the recorded call for "CN=C=O" in this test.
Result: inactive

Request: Look up the recorded call for "COc1cc(CNC(=O)CCCC/C=C/C(C)C)ccc1O" in this test.
Result: inactive

Request: Look up the recorded call for "CN(C)CCNC(=O)c1cccc2oc(-c3ccccc3)nc12" in this test.
Result: inactive

Request: Look up the recorded call for "c1ccc2nccnc2c1" in this test.
Result: inactive

Request: Look up the recorded call for "OCCCc1ccccc1" in this test.
Result: inactive

Request: Look up the recorded call for "CCN(CCCl)CCCNc1c2ccc(Cl)cc2nc2ccc(OC)nc12" in this test.
Result: active
